- MEASURED_ON: hFcγRIIIa-158V-streptavidin-His (human, UniProt P08637 17-208)
- Sequence (P08637 17-208 F176V): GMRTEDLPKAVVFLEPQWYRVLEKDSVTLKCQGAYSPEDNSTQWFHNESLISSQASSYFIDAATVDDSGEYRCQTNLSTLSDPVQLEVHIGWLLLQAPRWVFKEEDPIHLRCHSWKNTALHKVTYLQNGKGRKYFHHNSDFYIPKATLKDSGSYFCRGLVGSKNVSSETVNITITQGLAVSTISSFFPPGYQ
- MEASUREMENT_PROTOCOL: BLI
Quick list: pKd per entry.
Remember, pKd is on a log scale: it is -log10 of the molar concentration.

Consider the worked cases shown below.
| BINDER | VALUE |
| --- | --- |
| Trastuzumab-MFc6 (antibody) Fc: DKTHTCPPCPAPELPGGPDVFLFPPKPKDTLMISRTPEVTCVVVDVSHEYPEVKFNWYVDGVEVHNAKTKPREEQYNGTYRVVSVLTVLHRDWLNGKEYKCKVSNKALPAPEEKTISKAKGQPREPQVYTLPPSRGELTKNQVSLTCLVKGFYPSDIAVEWESNGQPENNYKTTPPVLDSDGSFFLYSKLTVDKSRWQQGNVFSCSVLHEALHNHYTQKSLSLSPGK | 7.54 |
| Trastuzumab-MFc2 (antibody) Fc: DKTHTCPPCPAPELPGGPSVFLFPPKPKDTLMISRTPEITCVVVDVSHEDPEVKFNWYVDGVEVHNAKTKPREEQYNSTYRVVSVLTVLHRDWLNGKEYKCKVSNKALPAPEEKTISKAKGQPREPQVYTLPPSRDELTKNQVSLTCLVKGFYPSDIVVEWESNGQPENNYKTTPPVLDSDGSFFLYSKLTVDKSRWQQGNVFSCSVLHEALHNHYTQKSLSLSPGK | 7.19 |

Continue with the binder presented below.
Prompt: Report measured pKd; entry is Trastuzumab-MFc3 (antibody) Fc: DKTHTCPPCPAPELLGGPDVFLFPPKPKDTLMISRTPEVTCVVVDVSLEDPEVKFNWYVDGVEVHNAKTKPREEQYNSTYRVVSVLTVLHRDWLNGKEYKCKVSNKALPVPEEKTISKAKGQPREPQVYTLPPSRDELTKNQVSLTCLVKGFYPSDIAVEWESNGQPENNYKTTPPVLDSDGSFFLYSKLTVDKSRWQQGNVFSCSVLHEALHNHYTQKSLSLSPGK
Response: 7.49
